# target_of_assay: Kv7.2/7.3 (Homo sapiens, UniProt O43525+O43526)
# Construct: host or cells: HEK cells, tetracycline-inducible expression
# assay_text: Kv7.2/7.3 activation assay, QPatch planar patch-clamp, single concentration screen
# Type: cell-based
# Parameters: key: <1.2-fold increase over baseline (−); +/−: as a range from <1.2-fold increase over baseline (−) up to >6-fold increase over baseline (+++); as a range from <1.2-fold increase over baseline (−) up to >6-fold increase over baseline (+++); as a range from <1.2-fold increase over baseline (−) up to >6-fold increase over baseline (+++); >6-fold increase over baseline (+++)
# test_settings: Kv7.2/Kv7.3 co-expressing HEK cells, compound 3 μM, steady-state current at end of 2 s pulse to −30 mV
readout_name: Kv7.2/7.3 Activity: increase in current over baseline

[
  {
    "compound": "CC1(n2c(NC(=O)C[C@](C)(O)c3ccccc3Cl)nc3ccc(C#N)cc32)CCC1",
    "observed": "+"
  },
  {
    "compound": "C[C@@](O)(CC(=O)Nc1nc2ccc(Cl)cc2n1C1CCC1)c1ccccc1",
    "observed": "+"
  },
  {
    "compound": "CC(C)(C)CC(=O)Nc1nc2ccc(C(F)(F)F)cc2n1C1CCC1",
    "observed": "++"
  },
  {
    "compound": "CCC(O)(CC)c1ccc2nc(NC(=O)C3CC34CC4)n(C3CCC3)c2c1 (centres unmarked)",
    "observed": "+/−"
  },
  {
    "compound": "CCOC(=O)Cc1ccc2nc(NC(=O)[C@H]3CC3(C)C)n(C3CCC3)c2c1F",
    "observed": "+"
  },
  {
    "compound": "CC1(C)C[C@@H]1C(=O)Nc1nc2ccc(C(F)(F)F)cc2n1C1CCC1",
    "observed": "+"
  },
  {
    "compound": "CC(C)(C)CC(=O)Nc1nc2ccc(C#N)cc2n1-c1ccc(F)cc1",
    "observed": "+"
  },
  {
    "compound": "O=C(Nc1nc2ccc(C(F)(F)F)cc2n1C1CCC1)C1CC(F)(F)C1",
    "observed": "+/−"
  },
  {
    "compound": "CCOC(=O)Cc1ccc2nc(NC(=O)CC(C)(C)C)n(-c3ccc(F)cc3)c2c1F",
    "observed": "++"
  },
  {
    "compound": "CC(C)(C)CC(=O)Nc1nc2ccc(CO)cc2n1C1CCC1",
    "observed": "+"
  },
  {
    "compound": "Cc1cc(-n2c(NC(=O)[C@@H](C)C(C)C)nc3ccc(C(F)(F)F)cc32)on1",
    "observed": "+"
  }
]

###

# target_of_assay: Kv7.2/7.3 (Homo sapiens, UniProt O43525+O43526)
# Construct: host or cells: HEK cells, tetracycline-inducible expression
# assay_text: Kv7.2/7.3 activation assay, QPatch planar patch-clamp, single concentration screen
# Type: cell-based
# Set-up: key: <1.2-fold increase over baseline (−); +/−: as a range from <1.2-fold increase over baseline (−) up to >6-fold increase over baseline (+++); as a range from <1.2-fold increase over baseline (−) up to >6-fold increase over baseline (+++); as a range from <1.2-fold increase over baseline (−) up to >6-fold increase over baseline (+++); >6-fold increase over baseline (+++)
# test_settings: Kv7.2/Kv7.3 co-expressing HEK cells, compound 3 μM, steady-state current at end of 2 s pulse to −30 mV
readout_name: Kv7.2/7.3 Activity: increase in current over baseline

[
  {
    "smiles_repr": "CC(C)(C)CC(=O)Nc1nc2ccc(C(C)(C)O)cc2n1C1CCC1",
    "observed": "+"
  },
  {
    "smiles_repr": "CC(C)[C@H](C)C(=O)Nc1nc2ccc(C(F)(F)F)cc2n1C1CCC1",
    "observed": "+"
  },
  {
    "smiles_repr": "CC(C)(O)c1ccc2nc(NC(=O)C3CC4(CCC4)C3)n(C3CCC3)c2c1",
    "observed": "++"
  },
  {
    "smiles_repr": "C[C@H](C(=O)Nc1nc2ccc(C#N)cc2n1C1CCC1)[C@](C)(O)c1ccccc1",
    "observed": "+"
  },
  {
    "smiles_repr": "C[C@H](C(=O)Nc1nc2ccc(C#N)cc2n1-c1ccc(F)cn1)C(C)(C)C",
    "observed": "++"
  },
  {
    "smiles_repr": "CC(C)(C)CC(=O)Nc1nc2ccc(CC(C)(C)O)c(F)c2n1-c1ccc(F)cc1",
    "observed": "+"
  },
  {
    "smiles_repr": "Cc1cc2nc(NC(=O)C[C@](C)(O)c3ccccc3)n(C3CCC3)c2cc1C#N",
    "observed": "+/−"
  }
]

###

# target_of_assay: Kv7.2/7.3 (Homo sapiens, UniProt O43525+O43526)
# Construct: host or cells: HEK cells, tetracycline-inducible expression
# assay_text: Kv7.2/7.3 activation assay, QPatch planar patch-clamp, single concentration screen
# Type: cell-based
# Design: key: <1.2-fold increase over baseline (−); +/−: as a range from <1.2-fold increase over baseline (−) up to >6-fold increase over baseline (+++); as a range from <1.2-fold increase over baseline (−) up to >6-fold increase over baseline (+++); as a range from <1.2-fold increase over baseline (−) up to >6-fold increase over baseline (+++); >6-fold increase over baseline (+++)
# test_settings: Kv7.2/Kv7.3 co-expressing HEK cells, compound 3 μM, steady-state current at end of 2 s pulse to −30 mV
readout_name: Kv7.2/7.3 Activity: increase in current over baseline

[
  {
    "compound": "O=C(CC1(O)CCC1)Nc1nc2ccc(C(F)(F)F)cc2n1C1CCC1",
    "observed": "+"
  },
  {
    "compound": "CC(C)[C@@H](C)C(=O)Nc1nc2ccc(C(F)(F)F)cc2n1C1CCC1",
    "observed": "+"
  },
  {
    "compound": "CC(C)[C@H](C)C(=O)Nc1nc2ccc(C#N)cc2n1-c1ccc(F)cn1",
    "observed": "+/−"
  },
  {
    "compound": "CCOC(=O)Cc1ccc2nc(NC(=O)CC(C)(C)C)n(C3CCC3)c2c1F",
    "observed": "+"
  },
  {
    "compound": "C[C@H](C(=O)Nc1nc2ccc(C#N)cc2n1C1CCC1)C(C)(C)C",
    "observed": "++"
  },
  {
    "compound": "CC1(C)CCC[C@@H](CC(=O)Nc2nc3ccc(C(C)(C)O)cc3n2C2CCC2)O1",
    "observed": "++"
  },
  {
    "compound": "CC1(n2c(NC(=O)C[C@](C)(O)c3ccc(F)cc3)nc3ccc(C#N)cc32)CCC1",
    "observed": "+"
  },
  {
    "compound": "CC(C)(O)[C@H]1C[C@@H]1C(=O)Nc1nc2ccc(C(F)(F)F)cc2n1C1CCC1",
    "observed": "+/−"
  },
  {
    "compound": "CC(C)(C)CC(=O)Nc1nc2ccc(C#N)cc2n1-c1ccc(F)cn1",
    "observed": "+"
  },
  {
    "compound": "O=C(CC1(O)CCC1)Nc1nc2ccc(C(F)(F)F)cc2n1-c1cc(F)cc(F)c1",
    "observed": "+"
  },
  {
    "compound": "N#Cc1ccc2nc(NC(=O)CC3(O)CCCC3)n(C3CCC3)c2c1",
    "observed": "+"
  },
  {
    "compound": "C[C@@](O)(CC(=O)Nc1nc2ccc(C#N)cc2n1-c1ccc(F)cc1)c1ccccc1",
    "observed": "+/−"
  },
  {
    "compound": "CC(C)(O)c1ccc2nc(NC(=O)C3CC34CCC4)n(C3CCC3)c2c1 (stereo not drawn)",
    "observed": "+"
  },
  {
    "compound": "C[C@](O)(CC(=O)Nc1nc2ccc(C#N)cc2n1C1CCC1)c1ccccn1",
    "observed": "+"
  },
  {
    "compound": "Cc1cc(-n2c(NC(=O)[C@@H](C)C(C)(C)C)nc3ccc(C#N)cc32)on1",
    "observed": "+"
  },
  {
    "compound": "O=C(CC1(O)CCC1)Nc1nc2ccc(Cl)cc2n1C1CCC1",
    "observed": "+"
  },
  {
    "compound": "CC(C)(O)CC(=O)Nc1nc2ccc(C(C)(C)O)cc2n1C1CCC1",
    "observed": "+/−"
  },
  {
    "compound": "N#Cc1ccc2nc(NC(=O)C[C@@H](O)c3ccccc3)n(C3CCC3)c2c1",
    "observed": "+/−"
  }
]

###

# target_of_assay: Kv7.2/7.3 (Homo sapiens, UniProt O43525+O43526)
# Construct: host or cells: HEK cells, tetracycline-inducible expression
# assay_text: Kv7.2/7.3 activation assay, QPatch planar patch-clamp, single concentration screen
# Assay type: cell-based
# Design: key: <1.2-fold increase over baseline (−); +/−: as a range from <1.2-fold increase over baseline (−) up to >6-fold increase over baseline (+++); as a range from <1.2-fold increase over baseline (−) up to >6-fold increase over baseline (+++); as a range from <1.2-fold increase over baseline (−) up to >6-fold increase over baseline (+++); >6-fold increase over baseline (+++)
# test_settings: Kv7.2/Kv7.3 co-expressing HEK cells, compound 3 μM, steady-state current at end of 2 s pulse to −30 mV
readout_name: Kv7.2/7.3 Activity: increase in current over baseline

[
  {
    "smiles_repr": "C[C@@](O)(CC(=O)Nc1nc2ccc(Cl)cc2n1-c1ccc(F)cc1)c1ccccc1",
    "observed": "+/−"
  },
  {
    "smiles_repr": "C[C@@](O)(CC(=O)Nc1nc2ccc(C#N)cc2n1C1CCC1)c1ccccc1",
    "observed": "+"
  },
  {
    "smiles_repr": "Cc1cc2nc(NC(=O)C[C@](C)(O)c3ccc(F)cc3)n(C(C)(C)C)c2cc1C#N",
    "observed": "+"
  },
  {
    "smiles_repr": "C[C@H](C(=O)Nc1nc2ccc(C#N)cc2n1C1CCC1)N(C)CC(F)(F)F",
    "observed": "+/−"
  },
  {
    "smiles_repr": "CC(C)(C)CC(=O)Nc1nc2ccccc2n1-c1ccccc1",
    "observed": "+"
  }
]
